Hey, just so you know, these numbers are from patent US11059855B2.

assay: Circular dichroism secondary structure (Dichroweb), with POPC; assay type: physicochemical; conditions: 95 °C
No end group written: not given here.
Property Measured: Peptide-POPC, Helix (%)
Dear colleague, please return just the value in %, with no unit written.

Qu. Identify measured Peptide-POPC, Helix corresponding to H-GLDDLLKALLKAAGW-NH2 [Peptide 4H9]
Ans. 47

Qu. Identify measured Peptide-POPC, Helix corresponding to H-GLDDLAKLLLKLAGW-NH2 [Peptide 25B2]
Ans. 61

Qu. Identify measured Peptide-POPC, Helix corresponding to GLLDDAKLLAKLAGW-AMIDE (GLLDDAKLLAKLAGW-NH2) [Peptide 7D12]
Ans. 22

* * *

experiment: Circular dichroism secondary structure (Dichroweb), with POPC; type: physicochemical; conditions: 45 °C
So I've got a bunch of substances here, and I need their Peptide-POPC, Strand values.
Dear colleague, please return just the value in %, with no unit written.

Qu. Identify measured Peptide-POPC, Strand corresponding to H-GLADLAKLLLKLLGW-NH2 [Peptide 7F3]
Ans. 2

Qu. Identify measured Peptide-POPC, Strand corresponding to H-GLLDLLKLLLKLAGW-NH2 [Peptide 28H6]
Ans. 6

Qu. Identify measured Peptide-POPC, Strand corresponding to H-GLLDLPKALAKALGW-NH2 [Peptide 7G6]
Ans. 6

Qu. Identify measured Peptide-POPC, Strand corresponding to H-GLDDLLKALLKAAGW-NH2 [Peptide 4H9]
Ans. 0

Qu. Identify measured Peptide-POPC, Strand corresponding to H-GLADAAKLLLKAAGW-NH2 [Peptide 11D12]
Ans. 10

Qu. Identify measured Peptide-POPC, Strand corresponding to H-GLLDLLHLLLKAAGW-NH2 [Peptide K7H]
Ans. 1

* * *

So I've got a bunch of substances here, and I need their Peptide-POPG, Helix values.
assay: Circular dichroism secondary structure (Dichroweb), with POPG; assay type: physicochemical; details: 45 °C
No end group written: not given here.
Dear colleague, please return just the value in %, with no unit written.

Qu. Identify measured Peptide-POPG, Helix corresponding to H-GLLDLLKLLLKLAGW-NH2 [Peptide 28H6]
Ans. 23

Qu. Identify measured Peptide-POPG, Helix corresponding to H-GLLDLPKALAKALGW-NH2 [Peptide 7G6]
Ans. 87

Qu. Identify measured Peptide-POPG, Helix corresponding to H-GLDDLAKLLLKLAGW-NH2 [Peptide 25B2]
Ans. 98

Qu. Identify measured Peptide-POPG, Helix corresponding to H-GLADAAKLLLKAAGW-NH2 [Peptide 11D12]
Ans. 92

Qu. Identify measured Peptide-POPG, Helix corresponding to H-GLLDLLHLLLKAAGW-NH2 [Peptide K7H]
Ans. 59

Qu. Identify measured Peptide-POPG, Helix corresponding to H-GLADLAKLLLKLLGW-NH2 [Peptide 7F3]
Ans. 58

Qu. Identify measured Peptide-POPG, Helix corresponding to H-GLLDAAKLLAKAAGW-NH2 [Peptide 24F1]
Ans. 88

Qu. Identify measured Peptide-POPG, Helix corresponding to GLLDDAKLLAKLAGW-AMIDE (GLLDDAKLLAKLAGW-NH2) [Peptide 7D12]
Ans. 66

Qu. Identify measured Peptide-POPG, Helix corresponding to H-GLDDLLKALLKAAGW-NH2 [Peptide 4H9]
Ans. 91
